Where these numbers come from: ChEMBL document CHEMBL5385915

method-notes: Efflux ratio of permeability across basolateral to apical side over apical to basolateral side in human Caco-2 cells incubated for 2 hrs by LC-MS/MS analysis
Type: ADME, cell-based
Measured efflux ratio at 2 h by item

FC(F)(F)c1cc([C@H]2C[C@@H](CN3CCCC3)N2Cc2ccccc2Br)cc(C(F)(F)F)c1 (racemic); < 1

We now examine a further compound.
Q: Sample FC(F)(F)Oc1ccc([C@H]2C[C@@H](CN3CCCC3)N2Cc2ccccc2OC(F)(F)F)cc1 (racemic) — what was its efflux ratio at 2 h?
Ans: < 1

====

method-notes: Lipophilicity, log P of the compound
Format: physicochemical
condition-notes: octanol/water
measure: logP
Quick one: just the number, no unit, thanks!

Below: 2 compounds and their reported logP.
CNC[C@@H]1C[C@H](c2ccc(OC(F)(F)F)cc2)N1Cc1ccccc1OC(F)(F)F (racemic); 6.14
CC(C)NC[C@@H]1C[C@H](c2ccc(OC(F)(F)F)cc2)N1Cc1ccccc1OC(F)(F)F (racemic); 6.92

Q: Form field: reported logP of FC(F)(F)c1cc([C@H]2C[C@@H](CN3CCCC3)N2Cc2ccccc2Br)cc(C(F)(F)F)c1 (racemic)
Ans: 6.6

Q: Cool, now FC(F)(F)Oc1ccc(C2CCN(C[C@@H]3C[C@H](c4ccccc4)N3Cc3ccccc3Br)CC2)cc1 (racemic)
Ans: 8.14

Q: Similarly, CC(C)NC[C@@H]1C[C@H](c2ccccc2)N1Cc1ccccc1OC(F)(F)F (racemic) ?
Ans: 5.49

Q: Repeat for the following compound: COc1ccc([C@H]2C[C@@H](CN3CCCC3)N2Cc2ccccc2Br)cc1 (racemic)
Ans: 4.68
